assay: clinical; conditions: both, human, in vivo, po, AUCinf, Least-Squares Means (LSM), Form D, plasma; Treatment D: Lortab 10 mg/500 mg alone, single oral dose, fed
MEASURED_PARAMETER: AUC(0-inf) (ng·h/mL)

> print(dat)
                                   molecule  numeric.value
1  CC(=O)Nc1ccc(O)cc1 [Acetaminophen, acetaminophen]          21400

###

experiment: clinical; details: both, human, in vivo, po, Cmax, Least-Squares Means (LSM), Form D
MEASURED_PARAMETER: Cmax (ng/mL)

> print(dat)
                                   compound  readout.units  numeric.value
1  COc1ccc2c3c1O[C@H]1C(=O)CC[C@H]4[C@@H](C2)N(C)CC[C@]314 [Hydrocodone, hydrocodone]          ng/mL           22.9

###

experiment: clinical; conditions: both, human, in vivo, po, AUC 0-t, Least-Squares Means (LSM), Form C
MEASURED_PARAMETER: AUC(0-t) (ng·h/mL)

> print(dat)
                                   molecule  readout.units  numeric.value
1  COc1ccc2c3c1O[C@H]1C(=O)CC[C@H]4[C@@H](C2)N(C)CC[C@]314 [Hydrocodone, hydrocodone]        ng·h/mL            142

###

experiment: clinical; details: both, human, in vivo
MEASURED_PARAMETER: Tmax

> print(dat)
                                   compound  measured.parameter  result
1  COc1ccc2c3c1O[C@H]1C(=O)CC[C@H]4[C@@H](C2)N(C)CC[C@]314 [Hydrocodone, hydrocodone]                Tmax    ~1 h

###

experiment: clinical; settings: both, human, in vivo, po, AUC 0-t, Least-Squares Means (LSM), Form A, plasma; Treatment A: one 10 mg/500 mg Lortab tablet + one 50 mg Colace capsule, single oral dose, fasting
MEASURED_PARAMETER: AUC(0-t) (ng·h/mL)

> print(dat)
                                   molecule  numeric.value
1  CC(=O)Nc1ccc(O)cc1 [Acetaminophen, acetaminophen]          21000
2  CCCCC(CC)COC(=O)CC(C(=O)OCC(CC)CCCC)S(=O)(=O)O (centres unmarked) [Docusate, dioctyl sodium sulphosuccinate]           1170

###

assay: clinical; settings: both, human, in vivo, po, AUCinf, Least-Squares Means (LSM), Form C
MEASURED_PARAMETER: AUC(0-inf) (ng·h/mL)

> print(dat)
                                   compound  measured.parameter  numeric.value
1  COc1ccc2c3c1O[C@H]1C(=O)CC[C@H]4[C@@H](C2)N(C)CC[C@]314 [Hydrocodone, hydrocodone]          AUC(0-inf)            170

###

assay: clinical; conditions: both, human, in vivo, po, Cmax, Least-Squares Means (LSM), Form D, plasma; Treatment D: Lortab 10 mg/500 mg alone, single oral dose, fed
MEASURED_PARAMETER: Cmax (ng/mL)

> print(dat)
                                   compound  numeric.value
1  CC(=O)Nc1ccc(O)cc1 [Acetaminophen, acetaminophen]           4020

###

test: clinical; conditions: both, human, in vivo, po, AUC 0-t, Least-Squares Means (LSM), Form B, plasma; Treatment B: one 10 mg/500 mg Lortab tablet alone, single oral dose, fasting
MEASURED_PARAMETER: AUC(0-t) (ng·h/mL)

> print(dat)
     structure.string  numeric.value
1  CC(=O)Nc1ccc(O)cc1          20700

###

assay: clinical; conditions: both, human, in vivo, po, AUCinf, Least-Squares Means (LSM), Form A
MEASURED_PARAMETER: AUC(0-inf)

> print(dat)
                                   compound       result
1  COc1ccc2c3c1O[C@H]1C(=O)CC[C@H]4[C@@H](C2)N(C)CC[C@]314 [Hydrocodone, hydrocodone]  162 ng·h/mL

###

experiment: clinical; details: both, human, in vivo, po, AUC 0-t, Least-Squares Means (LSM), Form A
MEASURED_PARAMETER: AUC(0-t) (ng·h/mL)

> print(dat)
                                   molecule  readout.units  numeric.value
1  COc1ccc2c3c1O[C@H]1C(=O)CC[C@H]4[C@@H](C2)N(C)CC[C@]314 [Hydrocodone, hydrocodone]        ng·h/mL            135

###

assay: clinical; details: both, human, in vivo, po, Cmax, Least-Squares Means (LSM), Form A
MEASURED_PARAMETER: Cmax (ng/mL)

> print(dat)
                                   compound  readout.units  numeric.value
1  COc1ccc2c3c1O[C@H]1C(=O)CC[C@H]4[C@@H](C2)N(C)CC[C@]314 [Hydrocodone, hydrocodone]          ng/mL           24.3

###

experiment: clinical; conditions: both, human, in vivo, po, Cmax, Least-Squares Means (LSM), Form C, plasma; Treatment C: Lortab 10 mg/500 mg + Colace 50 mg, single oral dose, fed
MEASURED_PARAMETER: Cmax (ng/mL)

> print(dat)
                                   compound  readout.units  numeric.value
1                        CC(=O)Nc1ccc(O)cc1          ng/mL           3940
2  CCCCC(CC)COC(=O)CC(C(=O)OCC(CC)CCCC)S(=O)(=O)O (centres unmarked) [Docusate, dioctyl sodium sulphosuccinate]          ng/mL            635

###

test: clinical; conditions: both, human, in vivo, po, Cmax, Least-Squares Means (LSM), Form C
MEASURED_PARAMETER: Cmax (ng/mL)

> print(dat)
                                   compound  numeric.value
1  COc1ccc2c3c1O[C@H]1C(=O)CC[C@H]4[C@@H](C2)N(C)CC[C@]314 [Hydrocodone, hydrocodone]           22.3

The reported measurements were obtained from patent US8188108B2.
